Entry source: patent US10329270B2

Parameter IC50: see the listing below.
Assayed Target: full-length human BTK (Homo sapiens, UniProt Q06187)
Construct: 2.5× stocks of full-length human BTK (08-080); purchased CarnaBio USA, Inc., Natick, Mass; 08-080
Sequence (Q06187 whole entry): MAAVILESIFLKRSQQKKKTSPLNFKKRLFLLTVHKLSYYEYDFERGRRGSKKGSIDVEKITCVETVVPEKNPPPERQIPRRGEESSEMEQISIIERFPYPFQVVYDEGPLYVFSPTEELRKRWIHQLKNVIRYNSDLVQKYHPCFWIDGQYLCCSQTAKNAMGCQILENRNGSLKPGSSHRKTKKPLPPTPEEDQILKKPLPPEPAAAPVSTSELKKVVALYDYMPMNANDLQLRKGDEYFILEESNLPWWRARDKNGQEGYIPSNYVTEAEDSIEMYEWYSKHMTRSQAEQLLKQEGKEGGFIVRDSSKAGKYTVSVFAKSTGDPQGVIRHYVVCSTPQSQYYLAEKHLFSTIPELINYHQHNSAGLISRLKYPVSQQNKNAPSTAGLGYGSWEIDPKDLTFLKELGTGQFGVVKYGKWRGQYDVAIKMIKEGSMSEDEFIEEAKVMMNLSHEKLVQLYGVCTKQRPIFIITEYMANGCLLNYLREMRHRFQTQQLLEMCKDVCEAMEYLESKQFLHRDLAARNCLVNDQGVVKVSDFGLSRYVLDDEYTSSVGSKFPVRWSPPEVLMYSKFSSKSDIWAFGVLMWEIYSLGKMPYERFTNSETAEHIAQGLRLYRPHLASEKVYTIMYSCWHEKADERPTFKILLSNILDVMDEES
Assay Comment: Assay A: BTK IC50 Enzyme Assay (microfluidic off-chip mobility shift kinase assay)
Assay type: biochemical
Condition Notes: full-length human BTK, kinKDR peptide substrate, incubated 90 min at 27 C; read-out: Assay A (Time Dependent BTK Enzyme Assay IC50)

C=CC(=O)N1CCC(c2cnc(C(N)=O)nc2)C1 (centres unmarked)
> 5000 nM
C=CC(=O)N[C@H]1CCN(c2ccc(C(N)=O)c(Nc3ccc(N4CCCCC4)nc3)n2)C1
< 100 nM

Data request: Consider the compound CC(C)=CC(=O)C1CCN(c2ccc(C(N)=O)c(Oc3ccc(Oc4ccccc4)cc3)n2)C1 (centres unmarked) and give its measured IC50.
Data returned: 100 to 1000 nM

Data request: Consider the compound `C=CC(=O)N1CCC(c2ccc(C(N)=O)c(Oc3ccc(Oc4ccccc4)cc3)n2)CC1` and give its measured IC50.
Data returned: < 100 nM

Data request: Consider the compound C=CC(=O)N1C2C=C(c3ccc(C(N)=O)c(Oc4ccc(Oc5ccccc5)cc4)n3)CC1CC2 (centres unmarked) and give its measured IC50.
Data returned: < 100 nM

Data request: Consider the compound `C=CC(=O)N1CCC(c2cnc(C(N)=O)c(NC(C)=O)c2)CC1` and give its measured IC50.
Data returned: < 100 nM

Data request: Consider the compound `C=CC(=O)NCc1ccc(-c2ccc(C(N)=O)c(Oc3ccc(Oc4ccccc4)cc3)n2)cc1` and give its measured IC50.
Data returned: 100 to 1000 nM

Data request: Consider the compound C=CC(=O)N1CCC2(CCN(c3cnc(Oc4ccc(Oc5ccccc5)cc4)c(C(N)=O)c3)C2)C1 (centres unmarked) and give its measured IC50.
Data returned: 100 to 1000 nM

Data request: Consider the compound `N#CN1CCC[C@@H](c2cnc(Oc3ccc(Oc4ccccc4)cc3)c(C(N)=O)c2)C1` and give its measured IC50.
Data returned: 100 to 1000 nM

Data request: Consider the compound `C=CC(=O)N[C@H]1CCN(c2ncc(C(N)=O)c(Oc3ccc(Oc4ccccc4)cc3)n2)C1` and give its measured IC50.
Data returned: 100 to 1000 nM

Data request: Consider the compound C=CC(=O)N1CCCC(c2cnc(Oc3ccc(Oc4ccccc4)cc3)c(C(N)=O)c2)C1 (centres unmarked) and give its measured IC50.
Data returned: < 100 nM

Data request: Consider the compound `C=CC(=O)N[C@H]1CCN(c2ccc(C(N)=O)c(Oc3ccc(C(=O)Nc4ccccc4)cc3)n2)C1` and give its measured IC50.
Data returned: 1000 to 5000 nM

Data request: Consider the compound N#CN1CCC(Nc2cnc(Oc3ccc(Oc4ccc(F)cc4F)cc3)c(C(N)=O)c2)C1 (centres unmarked) and give its measured IC50.
Data returned: 1000 to 5000 nM

Data request: Consider the compound C=CC(=O)N1CCCC(Nc2cnc(Oc3ccc(Oc4cccc(F)c4)cc3)c(C(N)=O)c2)C1 (centres unmarked) and give its measured IC50.
Data returned: 100 to 1000 nM
